target: ATR (Homo sapiens, UniProt Q13535); experiment: ATR protein kinase activity (Flag-ATR immunoprecipitate, PHAS-I substrate, 32P-ATP); conditions: 300 μM ATP, 20 minutes at 30° C., estimated from lines, read-out: IC50 for the phosphorylating activity of ATR
Sequence (Q13535 whole entry A92R): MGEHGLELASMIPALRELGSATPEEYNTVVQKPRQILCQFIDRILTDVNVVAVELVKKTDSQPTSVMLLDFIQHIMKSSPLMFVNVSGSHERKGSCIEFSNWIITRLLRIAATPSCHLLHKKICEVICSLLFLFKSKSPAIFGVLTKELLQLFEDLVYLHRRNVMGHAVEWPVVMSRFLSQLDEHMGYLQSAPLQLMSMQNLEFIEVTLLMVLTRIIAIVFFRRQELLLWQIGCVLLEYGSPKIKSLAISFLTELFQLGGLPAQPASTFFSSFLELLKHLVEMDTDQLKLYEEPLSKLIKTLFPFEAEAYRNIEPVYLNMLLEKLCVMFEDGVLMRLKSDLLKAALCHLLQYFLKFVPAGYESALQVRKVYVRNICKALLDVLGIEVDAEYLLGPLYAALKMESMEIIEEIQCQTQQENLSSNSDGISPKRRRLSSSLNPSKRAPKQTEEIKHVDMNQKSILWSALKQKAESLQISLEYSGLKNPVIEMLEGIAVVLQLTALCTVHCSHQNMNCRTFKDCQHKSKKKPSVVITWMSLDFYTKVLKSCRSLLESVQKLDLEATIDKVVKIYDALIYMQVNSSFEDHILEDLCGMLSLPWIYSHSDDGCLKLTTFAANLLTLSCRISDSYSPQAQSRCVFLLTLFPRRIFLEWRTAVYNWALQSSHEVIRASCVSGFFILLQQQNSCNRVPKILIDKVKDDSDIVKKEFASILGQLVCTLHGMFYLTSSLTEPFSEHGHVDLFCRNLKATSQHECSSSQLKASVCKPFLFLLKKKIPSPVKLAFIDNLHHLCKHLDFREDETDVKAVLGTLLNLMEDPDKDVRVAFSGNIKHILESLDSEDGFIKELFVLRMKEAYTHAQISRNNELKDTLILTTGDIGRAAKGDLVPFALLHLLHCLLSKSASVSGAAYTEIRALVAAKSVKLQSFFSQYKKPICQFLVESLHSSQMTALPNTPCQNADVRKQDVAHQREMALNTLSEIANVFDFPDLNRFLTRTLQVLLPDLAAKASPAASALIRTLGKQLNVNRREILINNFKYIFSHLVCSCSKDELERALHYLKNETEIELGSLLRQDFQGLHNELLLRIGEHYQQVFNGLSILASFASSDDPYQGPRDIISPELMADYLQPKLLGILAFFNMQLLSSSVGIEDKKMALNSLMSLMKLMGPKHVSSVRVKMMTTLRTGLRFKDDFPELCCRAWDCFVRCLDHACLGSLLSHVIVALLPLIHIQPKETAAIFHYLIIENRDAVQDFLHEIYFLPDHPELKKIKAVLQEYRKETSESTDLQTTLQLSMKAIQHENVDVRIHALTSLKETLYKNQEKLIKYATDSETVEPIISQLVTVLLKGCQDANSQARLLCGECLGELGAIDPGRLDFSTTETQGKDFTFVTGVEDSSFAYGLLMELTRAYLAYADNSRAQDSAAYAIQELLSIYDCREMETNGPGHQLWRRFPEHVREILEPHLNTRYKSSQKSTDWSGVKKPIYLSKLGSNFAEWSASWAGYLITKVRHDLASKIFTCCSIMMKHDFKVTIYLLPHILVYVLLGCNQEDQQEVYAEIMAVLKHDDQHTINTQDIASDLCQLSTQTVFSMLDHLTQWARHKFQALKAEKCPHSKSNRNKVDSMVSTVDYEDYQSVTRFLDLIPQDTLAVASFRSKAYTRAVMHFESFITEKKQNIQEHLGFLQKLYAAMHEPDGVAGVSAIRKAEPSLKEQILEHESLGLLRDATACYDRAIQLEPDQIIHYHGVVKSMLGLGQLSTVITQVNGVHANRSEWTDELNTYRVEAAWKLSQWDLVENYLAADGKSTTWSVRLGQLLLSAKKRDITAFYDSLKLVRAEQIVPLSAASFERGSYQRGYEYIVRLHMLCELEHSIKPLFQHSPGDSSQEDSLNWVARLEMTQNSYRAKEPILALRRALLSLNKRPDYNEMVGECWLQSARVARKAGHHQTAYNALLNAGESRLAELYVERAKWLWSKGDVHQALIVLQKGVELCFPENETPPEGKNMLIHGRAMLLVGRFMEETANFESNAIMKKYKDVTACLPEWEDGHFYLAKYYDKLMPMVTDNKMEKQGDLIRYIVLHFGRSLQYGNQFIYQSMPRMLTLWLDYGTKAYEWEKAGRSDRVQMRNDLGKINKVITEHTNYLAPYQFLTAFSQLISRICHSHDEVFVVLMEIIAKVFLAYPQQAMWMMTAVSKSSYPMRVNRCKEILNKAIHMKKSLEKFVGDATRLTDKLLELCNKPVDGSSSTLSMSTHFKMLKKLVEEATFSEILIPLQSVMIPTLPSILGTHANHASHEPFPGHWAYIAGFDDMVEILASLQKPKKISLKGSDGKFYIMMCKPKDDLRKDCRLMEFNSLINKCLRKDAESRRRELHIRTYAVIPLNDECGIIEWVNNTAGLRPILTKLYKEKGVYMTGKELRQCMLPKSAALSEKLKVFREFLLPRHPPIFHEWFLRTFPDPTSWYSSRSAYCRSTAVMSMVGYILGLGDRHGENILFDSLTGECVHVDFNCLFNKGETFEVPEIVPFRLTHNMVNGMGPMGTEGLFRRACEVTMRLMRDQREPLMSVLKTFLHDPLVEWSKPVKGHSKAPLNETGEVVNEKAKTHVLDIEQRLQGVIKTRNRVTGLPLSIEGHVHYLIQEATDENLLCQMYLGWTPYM
pIC50: −log10 of the molar value.
measured.endpoint: pIC50

Sample records with pIC50:
COc1cc2c(c(O)c1OC)-c1c(cc(OC)c(OC)c1OC)C[C@](C)(O)[C@@H](C)C2 (atropisomer, axis not shown) [GH, Gomisin H] | 4.34
C/C=C(\C)C(=O)O[C@@]1(C)Cc2cc(OC)c(OC)c(OC)c2-c2c(cc3c(c2OC)OCO3)C[C@@H]1C (atropisomer, axis not shown) [AGA, Angeloyl Gomisin A, reference compound] | 3.96

1. COc1cc2c(c(OC)c1OC)-c1c(cc3c(c1OC)OCO3)C[C@H](C)[C@@](C)(O)[C@H]2OC(=O)c1ccccc1 (atropisomer, axis not shown) [GC, Gomisin C]
2. COc1cc2c(c(OC)c1OC)-c1c(cc3c(c1OC)OCO3)[C@H](OC(=O)c1ccccc1)[C@](C)(O)[C@@H](C)C2 (atropisomer, axis not shown) [GG, Gomisin G]
Quick check, higher pIC50 between 1 and 2 ? Indicate which entry you chose by stating its label.
1
(1: 4.97, 2: 4.49)

###

system: A549 cells; assay: G2/M checkpoint: cells containing phosphorylated histone H3 (flow cytometry) in UV-irradiated A549 cells; type: cell-based; conditions: 30 μM compound, 20 J/m^2 UV, ratio of G2/M (phospho-histone H3) cells to total, Control 1.88, UV irradiation alone 0.52
Here, each record is paired with measured Rate of Divided cells data.
All answers are understood in %, so give the number only.

COc1c2c(cc3c1-c1c(cc4c(c1OC)OCO4)C[C@H](C)[C@H](C)C3)OCO2 (atropisomer, axis not shown) | 0.68

Can you look up the measured Rate of Divided cells of COc1cc2c(c(OC)c1OC)-c1c(cc3c(c1OC)OCO3)C[C@H](C)[C@](C)(O)[C@H]2OC(=O)c1ccccc1 (atropisomer, axis not shown) for me?
1.16

Same question for COc1cc2c(c(OC)c1OC)-c1c(cc3c(c1OC)OCO3)C[C@H](C)[C@@](C)(O)C2 (atropisomer, axis not shown) please.
0.90

Same question for COc1cc2c(c(OC)c1OC)-c1c(cc3c(c1OC)OCO3)C[C@@H](C)[C@@H](C)C2 (atropisomer, axis not shown) please.
0.88

Same question for C/C=C(/C)C(=O)O[C@H]1c2cc(OC)c(OC)c(OC)c2-c2c(cc3c(c2OC)OCO3)C[C@H](C)[C@@]1(C)O (atropisomer, axis not shown) please.
0.85

###

test system: A549 cells; test: G2/M checkpoint: cells containing phosphorylated histone H3 (flow cytometry) in UV-irradiated A549 cells; format: cell-based; conditions: 30 μM compound, 20 J/m^2 UV, ratio of G2/M (phospho-histone H3) cells to total, Control 1.88, UV irradiation alone 0.52
Here, each record is paired with measured Rate of Divided cells data.
All answers are understood in %, so give the number only.

Sample records with Rate of Divided cells:
C/C=C(\C)C(=O)O[C@@]1(C)Cc2cc(OC)c(OC)c(OC)c2-c2c(cc3c(c2OC)OCO3)C[C@@H]1C (atropisomer, axis not shown) [AGA, Angeloyl Gomisin A, reference compound] | 1.04
COc1cc2c(c(OC)c1OC)-c1c(cc(OC)c(OC)c1OC)C[C@](C)(O)[C@@H](C)C2 (atropisomer, axis not shown) [S, Schizandrin] | 0.68
COc1cc2c(c(OC)c1OC)-c1c(cc3c(c1OC)OCO3)[C@H](OC(=O)c1ccccc1)[C@](C)(O)[C@@H](C)C2 (atropisomer, axis not shown) [GG, Gomisin G] | 1.13

Continue with the compound presented below.
Can you look up the measured Rate of Divided cells of COc1cc2c(c(O)c1OC)-c1c(cc(OC)c(OC)c1OC)C[C@](C)(O)[C@@H](C)C2 (atropisomer, axis not shown) [GH, Gomisin H] for me?
1.42
